# PROCEDURE_DETAILS: The drug is tested on Z-003 corresponding to pig gut metagenome with ENA study accession number: PRJEB37062 and ENA sample accession number: ERS12561803 for biotransformation under anaerobic condition. The drug concentrations were measured over 9 timepoints collected between 0 and 24 hours of incubation by liquid-chromatography-coupled mass spectrometry (LC–MS); also: call rule not given here
# ASSAY_CONDITIONS: 2 µM
ENDPOINT: Bacterial Biotransformation

compound="CCOC(=O)[C@H](CCc1ccccc1)N[C@@H](C)C(=O)N1CCC[C@H]1C(=O)O.O=C(O)/C=C\\C(=O)O [ENALAPRIL MALEATE]" test_value="Compound NOT metabolized"
compound=CN(C/C=C/C#CC(C)(C)C)Cc1cccc2ccccc12 test_value="Compound NOT metabolized"
compound="Br.COc1ccc2c(c1)[C@]13CCCC[C@@H]1[C@H](C2)N(C)CC3.O [DEXTROMETHORPHAN HYDROBROMIDE]" test_value="Compound metabolized"
compound=CC[C@@]1(O)C(=O)OCc2c1cc1n(c2=O)Cc2cc3c(CN(C)C)c(O)ccc3nc2-1 test_value="Compound NOT metabolized"
compound="C#C[C@]1(OC(C)=O)CC[C@H]2[C@@H]3CCC4=C/C(=N/O)CC[C@@H]4[C@H]3CC[C@@]21CC [NORGESTIMATE]" test_value="Compound NOT metabolized"
compound="CC(C)(C)NC(=O)[C@H]1CC[C@H]2[C@@H]3CC[C@H]4NC(=O)C=C[C@]4(C)[C@H]3CC[C@]12C [FINASTERIDE]" test_value="Compound metabolized"
compound=CN1CCC(OC(c2ccccc2)c2ccccc2)CC1 test_value="Compound NOT metabolized"
compound=CC(C)(C)N.CCC[C@H](N[C@@H](C)C(=O)N1[C@H](C(=O)O)C[C@@H]2CCCC[C@@H]21)C(=O)OCC test_value="Compound metabolized"

* * *

# ASSAY_CONDITIONS: human gut metagenome, 24 h, 2 µM
ENDPOINT: Bacterial Biotransformation

molecule="Cc1ccccc1C(OCCN(C)C)c1ccccc1.O=C(O)CC(O)(CC(=O)O)C(=O)O (stereo not drawn) [ORPHENADRINE CITRATE]" test_value="Compound NOT metabolized"
molecule="COc1cc2nc(N3CCN(C(=O)C4COc5ccccc5O4)CC3)nc(N)c2cc1OC.CS(=O)(=O)O (stereo not drawn) [DOXAZOSIN MESYLATE]" test_value="Compound metabolized"
molecule="OCCN(CCO)c1nc(N2CCCCC2)c2nc(N(CCO)CCO)nc(N3CCCCC3)c2n1 [DIPYRIDAMOLE]" test_value="Compound metabolized"
molecule="COCCCC/C(=N\\OCCN)c1ccc(C(F)(F)F)cc1.O=C(O)/C=C\\C(=O)O [FLUVOXAMINE MALEATE]" test_value="Compound NOT metabolized"
molecule="CC(C)(C)NCC(O)c1cc(Cl)c(N)c(Cl)c1 (stereo not drawn) [CLENBUTEROL]" test_value="Compound NOT metabolized"
molecule="N#Cc1ccc2c(c1)N(CCCN1CCC(O)CC1)c1ccccc1S2 [PERICIAZINE]" test_value="Compound NOT metabolized"
molecule="O=C(O)CCC(=O)O.O=C(O[C@H]1CN2CCC1CC2)N1CCc2ccccc2[C@@H]1c1ccccc1 [SOLIFENACIN SUCCINATE]" test_value="Compound NOT metabolized"
molecule="COc1cc(C(=O)NCc2ccc(OCCN(C)C)cc2)cc(OC)c1OC [TRIMETHOBENZAMIDE]" test_value="Compound NOT metabolized"
molecule="CC[C@@]1(O)C(=O)OCc2c1cc1n(c2=O)Cc2cc3c(CN(C)C)c(O)ccc3nc2-1 [TOPOTECAN]" test_value="Compound NOT metabolized"
molecule="C[C@]12C=CC(=O)C=C1CC[C@@H]1[C@@H]2C(=O)C[C@@]2(C)[C@H]1CC[C@]2(O)C(=O)CO [PREDNISONE]" test_value="Compound metabolized"
molecule="CN(C)C(=O)Oc1cc(OC(=O)N(C)C)cc(C(O)CNC(C)(C)C)c1 (stereo not drawn) [BAMBUTEROL]" test_value="Compound NOT metabolized"
molecule="COc1ccnc(C[S+]([O-])c2nc3ccc(OC(F)F)cc3[nH]2)c1OC (stereo not drawn) [PANTOPRAZOLE]" test_value="Compound metabolized"
molecule="CCOc1cc(CC(=O)N[C@@H](CC(C)C)c2ccccc2N2CCCCC2)ccc1C(=O)O [REPAGLINIDE]" test_value="Compound metabolized"
molecule="O=C(NC(Cc1cc(=O)[nH]c2ccccc12)C(=O)O)c1ccc(Cl)cc1 (stereo not drawn) [REBAMIPIDE]" test_value="Compound NOT metabolized"
molecule="CC(C)(C)NC(=O)[C@H]1CC[C@H]2[C@@H]3CC[C@H]4NC(=O)C=C[C@]4(C)[C@H]3CC[C@]12C [FINASTERIDE]" test_value="Compound metabolized"
molecule=CCOC(=O)[C@H](CCc1ccccc1)N[C@@H](C)C(=O)N1Cc2ccccc2C[C@H]1C(=O)O test_value="Compound metabolized"
molecule="COc1cc2nc(N3CCN(C(=O)C4CCCO4)CC3)nc(N)c2cc1OC (stereo not drawn) [TERAZOSIN]" test_value="Compound metabolized"
molecule="O=C(O)c1cc(/N=N/c2ccc(S(=O)(=O)Nc3ccccn3)cc2)ccc1O [SULFASALAZINE]" test_value="Compound metabolized"
molecule="C[N+]12CCC(CC1)C(OC(=O)C(O)(c1ccccc1)c1ccccc1)C2.[Br-] (stereo not drawn) [CLIDINIUM BROMIDE]" test_value="Compound metabolized"
molecule="CC(=O)O[C@]1(C(C)=O)CC[C@H]2[C@@H]3C=C(C)C4=CC(=O)CC[C@]4(C)[C@H]3CC[C@@]21C [MEGESTROL ACETATE]" test_value="Compound metabolized"
molecule="CC(N)C12CC3CC(CC(C3)C1)C2 (stereo not drawn) [RIMANTADINE]" test_value="Compound NOT metabolized"
molecule="CCCN1C[C@H](CSC)C[C@@H]2c3cccc4[nH]cc(c34)C[C@H]21.CS(=O)(=O)O [PERGOLIDE MESYLATE]" test_value="Compound NOT metabolized"
molecule="CC(=O)Nc1ccc(OC(C)=O)cc1 [DIACETAMATE]" test_value="Compound metabolized"
molecule="CCN(C)C(=O)Oc1cccc([C@H](C)N(C)C)c1.O=C(O)C(O)C(O)C(=O)O [RIVASTIGMINE TARTRATE]" test_value="Compound NOT metabolized"
molecule="COc1ccc(Cc2nccc3cc(OC)c(OC)cc23)cc1OC [PAPAVERINE]" test_value="Compound metabolized"
molecule="CN(C)CCc1c[nH]c2ccc(CS(=O)(=O)N3CCCC3)cc12 [ALMOTRIPTAN]" test_value="Compound NOT metabolized"
molecule="Br.COc1ccc2c(c1)[C@]13CCCC[C@@H]1[C@H](C2)N(C)CC3.O [DEXTROMETHORPHAN HYDROBROMIDE]" test_value="Compound NOT metabolized"
molecule="O=C1C(CC[S+]([O-])c2ccccc2)C(=O)N(c2ccccc2)N1c1ccccc1 (stereo not drawn) [SULFINPYRAZONE]" test_value="Compound metabolized"
molecule=COc1ccc(/C=C/C(=O)Nc2ccccc2C(=O)O)cc1OC test_value="Compound NOT metabolized"
molecule="COc1ccc(C(CN(C)C)C2(O)CCCCC2)cc1 (stereo not drawn) [VENLAFAXINE]" test_value="Compound NOT metabolized"
molecule="Nc1nc(NC2CC2)c2ncn([C@H]3C=C[C@@H](CO)C3)c2n1.Nc1nc(NC2CC2)c2ncn([C@H]3C=C[C@@H](CO)C3)c2n1.O=S(=O)(O)O [ABACAVIR SULFATE]" test_value="Compound metabolized"
molecule="CC(CCc1ccccc1)NCC(O)c1ccc(O)c(C(N)=O)c1 (stereo not drawn) [LABETALOL]" test_value="Compound NOT metabolized"
molecule="COc1ccc2c(c1)c(CC(=O)O)c(C)n2C(=O)c1ccc(Cl)cc1 [INDOMETHACIN]" test_value="Compound metabolized"

* * *

# ASSAY_CONDITIONS: human gut metagenome, 24 h, 2 µM
ENDPOINT: Bacterial Biotransformation

compound="CCOc1cc(CC(=O)N[C@@H](CC(C)C)c2ccccc2N2CCCCC2)ccc1C(=O)O [REPAGLINIDE]" test_value="Compound metabolized"
compound="COc1cc(C(=O)NCc2ccc(OCCN(C)C)cc2)cc(OC)c1OC [TRIMETHOBENZAMIDE]" test_value="Compound NOT metabolized"
compound=CC#CCn1c(N2CCC[C@@H](N)C2)nc2c1c(=O)n(Cc1nc(C)c3ccccc3n1)c(=O)n2C test_value="Compound NOT metabolized"
compound="CSc1ccc2c(c1)C(N1CCN(C)CC1)Cc1ccccc1S2.O=C(O)/C=C\\C(=O)O (centres undefined)" test_value="Compound NOT metabolized"
compound=N[C@@H](Cc1ccc(N(CCCl)CCCl)cc1)C(=O)O test_value="Compound metabolized"
compound="CCOC(=O)[C@H](CCc1ccccc1)N[C@@H](C)C(=O)N1CCC[C@H]1C(=O)O.O=C(O)/C=C\\C(=O)O [ENALAPRIL MALEATE]" test_value="Compound NOT metabolized"
compound="O=C1CN2Cc3c(ccc(Cl)c3Cl)N=C2N1 [ANAGRELIDE]" test_value="Compound NOT metabolized"
compound=c1ccc2[nH]c(-c3cscn3)nc2c1 test_value="Compound NOT metabolized"
compound="CCOC(=O)C1=C(C)NC(C)=C(C(=O)OC)C1c1cccc([N+](=O)[O-])c1 (centres undefined)" test_value="Compound metabolized"
